target_or_test_system: T1, human IFNAR1 ECD (human, UniProt P17181 28-436)
T1 construct: extracellular domain; Coated on ELISA plates at 5 ug/ml
T1 sequence (looked up): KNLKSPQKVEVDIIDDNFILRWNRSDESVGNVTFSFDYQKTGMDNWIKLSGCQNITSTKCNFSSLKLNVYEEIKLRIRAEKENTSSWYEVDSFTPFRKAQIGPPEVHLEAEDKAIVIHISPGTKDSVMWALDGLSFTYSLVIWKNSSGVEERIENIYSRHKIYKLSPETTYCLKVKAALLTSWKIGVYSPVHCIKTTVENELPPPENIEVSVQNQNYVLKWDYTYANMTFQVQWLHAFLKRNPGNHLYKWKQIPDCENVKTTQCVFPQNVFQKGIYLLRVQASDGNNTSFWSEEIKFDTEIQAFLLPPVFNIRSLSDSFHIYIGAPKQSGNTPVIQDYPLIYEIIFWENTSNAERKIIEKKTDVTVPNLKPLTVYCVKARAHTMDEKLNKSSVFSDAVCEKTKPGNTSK
test_protocol: ELISA, plate coated with human IFNAR1 ECD, anti-human IgG Fc-peroxidase, OD450
Answer each item with its documented Top.
One number for each entry, in OD450.

As a guide, the following entries are already answered.
Hu4-14 (antibody, V domains shown, Humanized 7G4 variant) VH: QVQLVQSGAEVKKPGASVKVSCKASGYTFTSYWMNWVRQAPGQGLEWMGKIDPSDSETHFNQKFRDRVTLTVDKSTSTVYMELSSLRSEDTAVYYCARGGRISFDYDAALDYWGQGTLVTVSS VL: DIQMTQSPSSLSASVGDRVTITCKSSEVIYNRLAWYQQKPGNAPKLLISGATTLESGVPSRFSGSGSGKDYTLTISSLQPEDFATYYCQQYWNKPFTFGQGTKLEIK: 3.1
Hu4-16 (antibody, V domains shown, Humanized 7G4 variant) VH: QVQLVQSGAEVKKPGASVKVSCKASGYTFTSYWMNWVRQRPGQGLEWIGKIDPSDSETHFNQKFRDRVTLTVDKSTSTVYMELSSLRSEDTAVYYCARGGRISFDYDAALDYWGQGTLVTVSS VL: DIQMTQSPSSLSASVGDRVTITCKSSEVIYNRLAWYQQKPGNAPKLLISGATTLESGVPSRFSGSGSGKDYTLTISSLQPEDFATYYCQQYWNKPFTFGQGTKLEIK: 3.31

Lookup: Tell me its Top given 7G4 Chimeric (antibody, V domains shown) VH: QVQLQQPGAELVKPGAPVKLSCKASGYTFTSYWMNWVRQRPGRGLEWIGKIDPSDSETHFNQKFRDKATLTVDKSSTTAYIQLSSLTSEDSAVYYCARGGRISFDYDAALDYWGQGTSVTVSS VL: DILMTQSSSSFSVSLGDRVTITCKSSEVIYNRLAWFQQKPGNAPRLLISGATTLESGFPSRFSGSGSGKDYTLSITSLQIEDVSTYYCQQYWNKPFTFGSGTKLEVK as the entry.
Found: 3.27
